- Test system: Mus musculus
- assay overview: Neuroleptic activity in STD-ddy mouse assessed as inhibition of locomotion at 10 mg/kg, po measured for 3 mins
- Type: functional
- experimental context: 0.05 h
// label = yes (1) if inhibition in vivo at 10 mg/kg is not less than 50%, otherwise no (0)

Cl.O=C(CCCN1CC[C@H]2Nc3ccccc3[C@H]2C1)c1ccc(F)cc1 (relative stereo)    no (0)
CCN1c2ccc(C)cc2[C@H]2CN(CCCC(=O)c3ccc(F)cc3)CC[C@H]21.Cl (relative stereo)    no (0)
Cc1ccc2c(c1)[C@H]1CN(CCCC(=O)c3ccc(F)cc3)CC[C@H]1N2.Cl (relative stereo)    yes (1)

## Input Reported inhibition in vivo at 10 mg/kg reaches at least 50% for Cc1ccc2c(c1)[C@H]1CN(CCCN3c4ccccc4Sc4cc(Cl)ccc43)CC[C@H]1N2.Cl (relative stereo) ?
## Output yes (1)

## Input Reported inhibition in vivo at 10 mg/kg reaches at least 50% for "CN(C)CCCN1c2ccccc2Sc2ccc(Cl)cc21" ?
## Output yes (1)

## Input Reported inhibition in vivo at 10 mg/kg reaches at least 50% for Cc1ccc2c(c1)[C@H]1CN(CCCC(=O)c3ccc(F)cc3)CC[C@H]1N2C.Cl (relative stereo) ?
## Output yes (1)

## Input Reported inhibition in vivo at 10 mg/kg reaches at least 50% for COc1ccc2c(c1)[C@H]1CN(CCCC(=O)c3ccc(F)cc3)CC[C@H]1N2.Cl (relative stereo) ?
## Output yes (1)

## Input Reported inhibition in vivo at 10 mg/kg reaches at least 50% for Cc1ccc2c(c1)[C@H]1CN(CCCC(c3ccc(F)cc3)c3ccc(F)cc3)CC[C@H]1N2 (relative stereo) ?
## Output no (0)

## Input Reported inhibition in vivo at 10 mg/kg reaches at least 50% for Cl.O=C(CCCN1CC[C@H]2Nc3ccc(F)cc3[C@H]2C1)c1ccc(F)cc1 (relative stereo) ?
## Output no (0)

These measurements were taken from ChEMBL document CHEMBL3228022.
